Tested on: HT29 colorectal adenocarcinoma cells
Assay: In vitro cell kill assay
Assay type: cell-based
Conditions: Homo sapiens, HT-29; 72 h drug incubation; read-out: IC50
Assay metric: IC50 (µM)
Numbers only, in µM.

Lookup: For the compound CO[C@@]12[C@H](COC(N)=O)C3=C(C(=O)C(C)=C(N)C3=O)N1C[C@H]1[C@@H]2N1C(=O)OCCSSCCN1CCN(C)CC1 , what IC50 is on record?
Found: 3.09
